Please find below IC50 measurements for the protein given by its sequence, combined from several publications.
Sequence of the target: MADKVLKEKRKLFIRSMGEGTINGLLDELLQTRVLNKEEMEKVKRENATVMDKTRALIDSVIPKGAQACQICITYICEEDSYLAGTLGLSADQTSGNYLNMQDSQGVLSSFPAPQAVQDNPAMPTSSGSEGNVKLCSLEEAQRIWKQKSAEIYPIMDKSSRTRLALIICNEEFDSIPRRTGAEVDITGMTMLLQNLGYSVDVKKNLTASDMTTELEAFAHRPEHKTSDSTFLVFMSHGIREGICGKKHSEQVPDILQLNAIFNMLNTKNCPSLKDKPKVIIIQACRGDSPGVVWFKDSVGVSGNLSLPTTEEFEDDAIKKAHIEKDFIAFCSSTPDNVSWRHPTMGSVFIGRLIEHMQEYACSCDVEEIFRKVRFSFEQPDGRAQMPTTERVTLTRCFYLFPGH
readout name: IC50 (nM)

Example entries and their recorded answers appear below.
- compound: "O=C[C@H](CC(=O)O)NC(=O)[C@@H]1COC[C@@H]2C/C=C\\C[C@H](NC(=O)c3nccc4ccccc34)C(=O)N21"
  value units: "nM"
  reading: 3
- compound: "Cc1ccc(C(=O)NNC(=O)C2(C(=O)N[C@H]3CC(=O)OC3O)CCC2)cc1 (stereo partly specified)"
  value units: "nM"
  reading: 580
- compound: "CC(C)[C@H](CC(=O)NCCc1cccc2ncccc12)C(=O)N[C@H](C=O)CC(=O)O"
  value units: "nM"
  reading: 5.81
- compound: "O=C(CN1CC(CSCc2ccccc2)=CC[C@H](NC(=O)c2ccc3ccccc3c2)C1=O)N[C@H]1CC(=O)OC1O (stereo partly specified)"
  value units: "nM"
  reading: 8
- compound: "CC(=O)N1C[C@@H]2CCCC[C@H](NC(=O)c3ccccc3)C(=O)N2[C@H](C(=O)N[C@H]2CC(=O)OC2O)C1 (stereo partly specified)"
  value units: "nM"
  reading: 6
- compound: "O=C(O)C[C@H](NC(=O)C(c1ccccc1)n1cccc(NC(=O)c2cccc3ccccc23)c1=O)C(=O)COc1ccccc1 (stereo partly specified)"
  value units: "nM"
  reading: 10
- compound: "COc1ccc(-c2cc(C(N)=O)c(Cl)nn2)cc1"
  value units: "nM"
  reading: 66000
- compound: "O=C[C@H](CC(=O)O)NC(=O)c1ccc(CNC(=O)c2ccc(Nc3cnc4ccccc4n3)cc2)nc1"
  value units: "nM"
  reading: 5
- compound: "CC(C)[C@H](NC(=O)c1cc(Br)cc(Br)c1)C(=O)N[C@@H](CC(=O)O)C(=O)CSCc1ccccc1"
  value units: "nM"
  reading: 860
- compound: "N#CC(C#N)=C1C(=O)N(Cc2ccc(OCCF)cc2)c2ccc(S(=O)(=O)N3CC[C@H]3COc3ccccc3)cc21"
  value units: "nM"
  reading: 4780

a: CS(=O)(=O)N1C[C@@H]2CCCC[C@H](NC(=O)c3ccc4ccccc4c3)C(=O)N2[C@H](C(=O)N[C@H]2CC(=O)OC2O)C1 (stereo partly specified)
b: O=C(CN1CCCN(C(=O)N2CCNCC2)C[C@H](NC(=O)c2ccc3ccccc3c2)C1=O)N[C@H]1CC(=O)OC1O (stereo partly specified)
Data request: Lab note: record which item had the higher IC50, a or b . Reply briefly: the label of your chosen item.
Data returned: b
